# target or test system: Aldo-keto reductase family 1 member B1 (Homo sapiens)
# protocol text: Inhibition of human Aldose reductase
recorded endpoint: pIC50
In textbook form, pIC50 equals minus log to base ten of the concentration in mol/L.

# compound string, target or test system, recorded endpoint, readout number
data = [
    ("O=C(O)Cc1nn(Cc2nc3cc(C(F)(F)F)ccc3s2)c(=O)c2cc3ccccc3cc12", "Aldo-keto reductase family 1 member B1 (Homo sapiens)", "pIC50", 7.34),
]

Turning now to a further record.
Recorded pIC50 (compound O=C(O)Cc1nn(Cc2cc(F)cc(Br)c2)c(=O)c2ccccc12 ): 7.70

* * *

# target or test system: Cystic fibrosis transmembrane conductance regulator (Homo sapiens, UniProt P13569, F508DEL/H148Q/I152L)
# Sequence (P13569 whole entry, looked up, stated change not applied): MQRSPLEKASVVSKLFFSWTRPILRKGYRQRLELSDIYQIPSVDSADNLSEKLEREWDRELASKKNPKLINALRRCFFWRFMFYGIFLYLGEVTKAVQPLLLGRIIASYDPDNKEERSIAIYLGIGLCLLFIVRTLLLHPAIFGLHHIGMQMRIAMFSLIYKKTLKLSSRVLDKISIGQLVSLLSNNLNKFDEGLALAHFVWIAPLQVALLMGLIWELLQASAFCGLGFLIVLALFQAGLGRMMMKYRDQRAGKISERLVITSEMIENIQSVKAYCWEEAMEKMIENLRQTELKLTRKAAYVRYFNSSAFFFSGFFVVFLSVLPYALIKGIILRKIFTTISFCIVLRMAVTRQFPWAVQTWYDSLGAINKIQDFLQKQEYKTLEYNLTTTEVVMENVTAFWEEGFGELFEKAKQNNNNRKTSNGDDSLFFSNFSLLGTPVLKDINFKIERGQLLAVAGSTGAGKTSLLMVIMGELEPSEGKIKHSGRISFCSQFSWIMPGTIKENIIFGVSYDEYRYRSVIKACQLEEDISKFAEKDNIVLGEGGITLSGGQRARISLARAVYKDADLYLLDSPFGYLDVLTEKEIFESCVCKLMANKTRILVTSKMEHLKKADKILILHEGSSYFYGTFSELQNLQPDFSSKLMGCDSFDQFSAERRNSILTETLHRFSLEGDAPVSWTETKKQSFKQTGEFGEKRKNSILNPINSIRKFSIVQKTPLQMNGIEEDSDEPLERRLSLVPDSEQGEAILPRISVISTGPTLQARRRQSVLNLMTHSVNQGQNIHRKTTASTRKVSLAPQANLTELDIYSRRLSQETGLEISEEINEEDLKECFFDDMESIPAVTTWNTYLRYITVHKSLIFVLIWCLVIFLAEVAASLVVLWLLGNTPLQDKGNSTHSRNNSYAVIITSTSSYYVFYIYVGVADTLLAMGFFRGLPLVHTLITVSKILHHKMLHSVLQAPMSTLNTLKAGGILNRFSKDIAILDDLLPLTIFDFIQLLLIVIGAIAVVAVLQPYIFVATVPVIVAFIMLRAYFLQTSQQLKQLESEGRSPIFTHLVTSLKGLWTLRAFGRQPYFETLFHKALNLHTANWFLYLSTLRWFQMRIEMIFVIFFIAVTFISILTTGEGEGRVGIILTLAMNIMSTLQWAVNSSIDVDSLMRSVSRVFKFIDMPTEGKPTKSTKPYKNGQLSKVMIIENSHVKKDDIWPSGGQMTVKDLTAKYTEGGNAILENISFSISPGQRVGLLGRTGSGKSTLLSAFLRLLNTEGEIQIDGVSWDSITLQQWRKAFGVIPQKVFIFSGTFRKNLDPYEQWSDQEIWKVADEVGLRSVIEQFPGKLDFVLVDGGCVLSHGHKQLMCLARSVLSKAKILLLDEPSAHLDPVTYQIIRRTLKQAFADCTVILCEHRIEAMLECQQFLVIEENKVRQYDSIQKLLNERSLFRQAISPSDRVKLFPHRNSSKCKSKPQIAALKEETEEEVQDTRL
# protocol text: Inhibition of human CFTR F508 deletion mutant expressed in rat FRT cells coexpressing YFP-H148Q/I152L 25,22 incubated for 60 to 120 mins in presence of forskolin by fluorescent method
pEC50: −log10 of the molar value.
recorded endpoint: pEC50

So for Cc1nc2ccc(N(C)C(=O)Cn3nc(-c4cccc(Cl)c4)c4ccccc4c3=O)cc2o1 , the logged pEC50 turned out to be > 5.00

* * *

# protocol text: Inhibition of human HeLa cell derived PARP preincubated for 10 mins followed by NAD and double stranded DNA-oligos addition and measured after 45 mins by scintillation counting
# Assay type: cell-based
recorded endpoint: IC50

Consider the reported IC50 for these compounds:
# compound, IC50
measured = [
    ("CC1C(=O)N(c2cccc(Cc3n[nH]c(=O)c4ccccc34)c2)C(=O)N1CCN1CCCCC1 (centres undefined)", "2.8 nM"),
    ("CCOC1CCN(C(=O)c2cc(Cc3n[nH]c(=O)c4ccccc34)ccc2F)CC1", "3 nM"),
    ("CN1CC(=O)N(c2cccc(Cc3n[nH]c(=O)c4ccccc34)c2)C1=O", "< 10 nM"),
]

compound O=C(c1cc(Cc2n[nH]c(=O)c3ccccc23)ccc1F)N1CCN(c2ccccn2)CC1 , IC50 observed: 3 nM

Looking up O=C1CCC(=O)N1c1cccc(Cc2n[nH]c(=O)c3ccccc23)c1 , I found its IC50 recorded as < 3 nM

Entry O=C(c1cc(Cc2n[nH]c(=O)c3ccccc23)ccc1F)N1CCNCC1 , IC50 reported as < 20 nM

* * *

# IC50 values compiled below
# target or test system: UniProt P09874
# protocol text: Inhibition of human PARP1 expressed in Escherichia coli incubated for 15 to 40 mins by ELISA
Answer format: numeric, nM implied, no suffix.

Examples from the recorded data:
# molecule, units text, IC50
data = [
    ("O=C(c1cc(Cc2n[nH]c(=O)c3ccccc23)ccc1F)N1CCn2cnnc2C1", "nM", 5000),
    ("O=C(c1cc(Cc2n[nH]c(=O)c3ccccc23)cc2c1OCC2)N1CCn2c(nnc2C(F)(F)F)C1", "nM", 1.7),
]

Moving on to the next molecule.
// IC50 value for O=C(c1cc(Cc2n[nH]c(=O)c3ccccc23)ccc1F)N1CC2C(=O)N(Cc3ccccc3)C(=O)C2C1 (stereo not drawn) : 0.5

* * *

# target or test system: Poly [ADP-ribose] polymerase 1 (Homo sapiens)
# Sequence (P09874 whole entry): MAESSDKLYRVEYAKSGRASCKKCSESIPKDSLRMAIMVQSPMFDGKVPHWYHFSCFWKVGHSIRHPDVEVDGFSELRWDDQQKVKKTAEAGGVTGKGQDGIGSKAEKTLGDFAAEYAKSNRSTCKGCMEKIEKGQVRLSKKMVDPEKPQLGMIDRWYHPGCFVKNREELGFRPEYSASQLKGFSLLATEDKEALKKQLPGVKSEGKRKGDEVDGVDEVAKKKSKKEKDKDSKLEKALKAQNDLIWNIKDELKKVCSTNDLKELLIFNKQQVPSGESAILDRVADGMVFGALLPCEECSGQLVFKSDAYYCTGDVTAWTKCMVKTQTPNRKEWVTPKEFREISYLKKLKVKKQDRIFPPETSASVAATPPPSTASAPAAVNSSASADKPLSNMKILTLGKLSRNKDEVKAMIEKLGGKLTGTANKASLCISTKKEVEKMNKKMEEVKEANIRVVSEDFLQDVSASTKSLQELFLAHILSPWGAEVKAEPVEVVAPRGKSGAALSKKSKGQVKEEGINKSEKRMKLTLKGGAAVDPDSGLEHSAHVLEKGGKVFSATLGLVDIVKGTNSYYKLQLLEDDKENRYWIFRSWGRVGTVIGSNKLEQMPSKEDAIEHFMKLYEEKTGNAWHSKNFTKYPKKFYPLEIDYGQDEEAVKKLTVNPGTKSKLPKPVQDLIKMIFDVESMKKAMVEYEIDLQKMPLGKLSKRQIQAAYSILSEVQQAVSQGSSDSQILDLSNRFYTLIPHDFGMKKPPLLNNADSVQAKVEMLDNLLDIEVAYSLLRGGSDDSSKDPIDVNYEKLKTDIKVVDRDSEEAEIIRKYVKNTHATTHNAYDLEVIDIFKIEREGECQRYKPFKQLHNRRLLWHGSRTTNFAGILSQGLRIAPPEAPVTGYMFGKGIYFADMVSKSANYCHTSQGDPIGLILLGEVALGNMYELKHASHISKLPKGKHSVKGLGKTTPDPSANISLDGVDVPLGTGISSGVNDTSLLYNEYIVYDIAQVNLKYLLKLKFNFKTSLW
# protocol text: Inhibition of N-terminal GST-tagged human PARP1 expressed in a Baculovirus infected Sf9 insect cells using biotinylated substrate incubated for 1 hr by colorimetric method
recorded endpoint: IC50

Lab note: measured IC50 of O=C(CCCn1nc(-c2ccccc2)c2ccccc2c1=O)Nc1cccc(Cl)c1 was 97 nM

* * *

# target or test system: Aldo-keto reductase family 1 member B1 (Homo sapiens)
recorded endpoint: IC50

// IC50 lookup, molecule = O=C(O)Cc1nn(Cc2nc3cc(F)cc(F)c3o2)c(=O)c2ccccc12 , result: 3.2 to 52 nM

* * *

# target or test system: Prostaglandin E synthase (Homo sapiens)
# Sequence (O14684 whole entry): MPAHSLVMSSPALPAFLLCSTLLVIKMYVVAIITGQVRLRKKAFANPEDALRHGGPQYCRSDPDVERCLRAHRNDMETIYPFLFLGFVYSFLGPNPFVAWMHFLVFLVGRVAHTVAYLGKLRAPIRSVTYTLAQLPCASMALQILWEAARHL
# protocol text: Inhibition of mPGES-1 in human A549 cells assessed as reduction in […] induced PGE2 release preincubated for 30 mins followed by […] addition and measured after 16 to 20 hrs by HTRF assay
# Format: cell-based
pIC50: −log10 of the molar value.
recorded endpoint: pIC50

// pIC50 lookup, compound = O=C(Nc1ccc2cnn(-c3ccc(Br)cc3)c(=O)c2c1)c1c(F)cccc1Cl , result: > 7.30

* * *

# protocol text: Inhibition of PARP in human C41 cells assessed as reduction in protein accumulation preincubated for 30 mins followed by H2O2 addition and measured after 10 mins by FITC/DAPI-staining based fluorescence method
# Assay type: cell-based
recorded endpoint: EC50 (nM)
Give just the number in nM; leave the unit off.

Entry under test: O=C(c1cc(Cc2n[nH]c(=O)c3ccccc23)ccc1F)N1CCN(c2ncccn2)CC1 . Its EC50 was 0.7

* * *

# protocol text: Induction of mouse primary oligodendrocytes incubated for 16 to 24 hrs by WSTl reagent based assay
# Assay type: functional
recorded endpoint: EC50 (nM)
# number only, unit nM dropped from output

EC50 measured on O=c1[nH]nc(-c2ccc(N3CCCCCC3)c([N+](=O)[O-])c2)c2ccccc12 = 200

* * *

# target or test system: Aldo-keto reductase family 1 member B1 (Homo sapiens)
# protocol text: Inhibition of human Aldose reductase
pIC50: −log10 of the molar value.
recorded endpoint: pIC50

In the examples that follow, each entry is paired with its recorded pIC50.
# compound string, recorded endpoint, result
data = [
    ("O=C(O)Cc1nn(Cc2nc3cc(C(F)(F)F)ccc3s2)c(=O)c2ncccc12", "pIC50", "7.28 to 8.68"),
    ("Cc1c(CC(=O)O)nn(Cc2nc3cc(F)cc(F)c3s2)c(=O)c1C", "pIC50", "8.30 to 8.49"),
]

Moving on to another compound below.
Sample Cc1c(CC(=O)O)nn(Cc2nc3cc(C(F)(F)F)ccc3s2)c(=O)c1C ; pIC50 observed: 7.80 to 8.00

* * *

The entries below come with measured pIC50 values attached.
# protocol text: Inhibition of human HeLa cell derived PARP preincubated for 10 mins followed by NAD and double stranded DNA-oligos addition and measured after 45 mins by scintillation counting
# Assay type: cell-based
To interpret pIC50, take it as minus log10 of a concentration measured in moles per litre.

# compound, readout number
rows = [
    ("O=C(Nc1ccc(-c2cccc(Cc3n[nH]c(=O)c4ccccc34)c2)cc1)C1CC1", 7.24),
    ("COC1CCN(C(=O)c2cc(Cc3n[nH]c(=O)c4ccccc34)ccc2F)CC1 [AZD2461]", 8.30),
]

Entry CC1NC(=O)N(c2cccc(Cc3n[nH]c(=O)c4ccccc34)c2)C1=O (stereo not drawn) ; pIC50 = 8.30

Numbers sourced from ChEMBL document CHEMBL4354803.
